# Target or test system: Carbonic anhydrase 2 (Homo sapiens)
# Method: Inhibition of full length human recombinant CA2 cytosolic isoform after 6 hrs by stopped-flow CO2 hydration method
pKi: −log10 of the molar value.
Measure: pKi

# lookup: O=S1(=O)C=Cc2c(ccc3ccccc23)O1 on Carbonic anhydrase 2 (Homo sapiens), pKi = < 4.00

# lookup: O=S1(=O)C=Cc2cc(OCc3ccccc3)ccc2O1 on Carbonic anhydrase 2 (Homo sapiens), pKi = < 4.00

# lookup: O=[N+]([O-])c1ccc2c(c1)C=CS(=O)(=O)O2 on Carbonic anhydrase 2 (Homo sapiens), pKi = < 4.00

# lookup: O=S1(=O)C=Cc2cc(Br)ccc2O1 on Carbonic anhydrase 2 (Homo sapiens), pKi = < 4.00

# lookup: O=S1(=O)C=Cc2cc(O)ccc2O1 on Carbonic anhydrase 2 (Homo sapiens), pKi = < 4.00

# lookup: O=S1(=O)C=Cc2cc(Cl)cc(Cl)c2O1 on Carbonic anhydrase 2 (Homo sapiens), pKi = < 4.00
